Biological target: T1, His-tagged CSF1R extracellular domain (UniProt P07333 20-517, limits assumed)
T1 construct: extracellular domain; also called c-Kit family member; not shown: His tag
T1 sequence (P07333 20-517 limits assumed): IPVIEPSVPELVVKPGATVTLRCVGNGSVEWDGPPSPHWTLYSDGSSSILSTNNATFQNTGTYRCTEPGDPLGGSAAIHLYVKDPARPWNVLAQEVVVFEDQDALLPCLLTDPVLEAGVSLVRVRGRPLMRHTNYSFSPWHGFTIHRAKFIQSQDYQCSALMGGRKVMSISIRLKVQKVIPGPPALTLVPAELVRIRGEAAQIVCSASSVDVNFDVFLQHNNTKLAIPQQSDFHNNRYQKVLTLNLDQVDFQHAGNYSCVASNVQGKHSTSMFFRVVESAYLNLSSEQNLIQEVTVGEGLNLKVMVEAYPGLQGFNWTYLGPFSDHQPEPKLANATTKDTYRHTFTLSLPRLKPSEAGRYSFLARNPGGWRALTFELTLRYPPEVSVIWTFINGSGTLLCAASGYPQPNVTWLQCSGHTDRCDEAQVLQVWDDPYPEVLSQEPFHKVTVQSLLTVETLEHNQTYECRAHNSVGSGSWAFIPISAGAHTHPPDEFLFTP
Test: ELISA, His-tagged extracellular domain coated
Measured attribute: binding result

binder="hSR1-6 (antibody, human IgG1, kappa, V domains shown, also called humanized SR1-6; hSR1-H3 / hSR1-L2r) VH: QVQLVQSGAEVKKPGASVKMSCKASGYTFTSYNMHWVRQAPGQGLEWIGVIYSGNGDTSYAQKFQGRATLTADTSTSTAYMELSSLRSEDTAVYYCARERDTRFGNWGQGTLVTVSS VL: DIQLTQSPSSLSASVGDRATITCRASESVDIYGNSFMHWYQQKPGKAPKLLIYLASNLESGVPSRFSGSGSRTDFTLTISSVQPEDFATYYCQQNNEDPYTFGQGTKLEIKR" result="no binding"
binder="hSR1-1 (antibody, human IgG1, kappa, V domains shown, Humanized anti-c-Kit antibody; also called humanized SR1-1; hSR1-H2 / hSR1-L2) VH: QVQLVQSGAEVKKPGASVKVSCKASGYTFTSYNMHWVRQAPGQGLEWMGVIYSGNGDTSYAQKFQGRVTMTADTSTSTAYMELSSLRSEDTAVYYCARERDTRFGNWGQGTLVTVSS VL: DIQLTQSPSSLSASVGDRATITCRASESVDIYGNSFMHWYQQKPGKAPKLLIYLASNLESGVPSRFSGSGSGTDFTLTISSVQPEDFATYYCQQNNEDPYTFGQGTKLEIKR" result="no binding"
binder="hSR1-4 (antibody, human IgG1, kappa, V domains shown, also called humanized SR1-4; hSR1-H3b / hSR1-L2) VH: QVQLVQSGAEVKKPGASVKMSCKASGYTFTSYNMHWVRQAPGQGLEWIGVIYSGNGDTSYAQKFQGRATLTADKSTSTAYMELSSLRSEDTAVYYCARERDTRFGNWGQGTLVTVSS VL: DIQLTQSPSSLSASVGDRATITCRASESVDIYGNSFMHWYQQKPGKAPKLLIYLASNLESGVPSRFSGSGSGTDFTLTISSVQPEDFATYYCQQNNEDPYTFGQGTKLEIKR" result="no binding"
